The origin of these recorded values is patent EP0774454A1.

# Test system: metabotropic glutamate receptors
# experiment-summary: displacement of 1S,3R-ACPD-sensitive [3H]glutamate binding to rat brain cell membranes (crude membranes of rat forebrain)
quantity-kind: pIC50
Please report pIC50 as the negative decimal logarithm of the molar concentration, giving only the number.

State the recorded pIC50 for this entry: NC1(C(=O)O)CC(Sc2ccccc2)C2C(C(=O)O)C21 (stereo not shown) 6.62
